All values here come from patent US20200017496A1.

# Test system: Proteus mirabilis (PMI) isolates
# EXPERIMENT NOTES: microbe, parasite or virus in culture
# Assay type: cell-based
# CONDITION PARAMETERS: PMI UFR122; AF1 @ 4 μg/mL
QUANTITY KIND: MIC ATB in combination

Examples with their reported MIC ATB in combination follow.
# RECORD SMILES, RESULT
data = [
    ("CC1(C)S[C@@H]2[C@H](NC(=O)[C@H](N)c3ccc(O)cc3)C(=O)N2[C@H]1C(=O)O", "<=0.25 μg/mL"),
    ("CO/N=C(\\C(=O)N[C@@H]1C(=O)N2C(C(=O)O)=C(COC(N)=O)CS[C@H]12)c1ccco1", "1 µg/mL"),
    ("CC(C)(O/N=C(\\C(=O)N[C@@H]1C(=O)N2C(C(=O)[O-])=C(C[n+]3ccccc3)CS[C@H]12)c1csc(N)n1)C(=O)O", "<=0.25 μg/mL"),
    ("COCC1=C(C(=O)O)N2C(=O)[C@@H](NC(=O)/C(=N\\OC)c3csc(N)n3)[C@H]2SC1", "<=0.25 μg/mL"),
    ("C=CC1=C(C(=O)O)N2C(=O)[C@@H](NC(=O)/C(=N\\OCC(=O)O)c3csc(N)n3)[C@H]2SC1", "<=0.25 μg/mL"),
]

--- query ---
Ask: What does the record list as MIC ATB in combination for C=CC1=C(C(=O)O)N2C(=O)[C@@H](NC(=O)/C(=N\O)c3csc(N)n3)[C@H]2SC1 ?
Result: <=0.25 μg/mL

---

# Test system: Escherichia coli (ECO) isolates
# EXPERIMENT NOTES: MIC of compounds alone and combined with antibacterials, broth microdilution (CLSI)
# Type: cell-based
# CONDITION PARAMETERS: ECO UFR210; AF1 @ 4 μg/mL
QUANTITY KIND: MIC ATB in combination

# MOLECULE, TARGET OF ASSAY, QUANTITY KIND, RESULT
records = [
    ("CC(C)(O/N=C(\\C(=O)N[C@@H]1C(=O)N2C(C(=O)[O-])=C(C[n+]3ccccc3)CS[C@H]12)c1csc(N)n1)C(=O)O [CAZ, Ceftazidime]", "Escherichia coli (ECO) isolates", "MIC ATB in combination", "<=0.25 μg/mL"),
    ("C=CC1=C(C(=O)O)N2C(=O)[C@@H](NC(=O)/C(=N\\O)c3csc(N)n3)[C@H]2SC1 [CDR, Cefdinir]", "Escherichia coli (ECO) isolates", "MIC ATB in combination", "<=0.25 μg/mL"),
    ("C=CC1=C(C(=O)O)N2C(=O)[C@@H](NC(=O)/C(=N\\OCC(=O)O)c3csc(N)n3)[C@H]2SC1 [FIX, Cefixime]", "Escherichia coli (ECO) isolates", "MIC ATB in combination", "<=0.25 μg/mL"),
    ("CO/N=C(\\C(=O)N[C@@H]1C(=O)N2C(C(=O)O)=C(COC(N)=O)CS[C@H]12)c1ccco1 [FUR, Cefuroxime]", "Escherichia coli (ECO) isolates", "MIC ATB in combination", "2 µg/mL"),
]

--- query ---
Ask: What does the record list as MIC ATB in combination for COCC1=C(C(=O)O)N2C(=O)[C@@H](NC(=O)/C(=N\OC)c3csc(N)n3)[C@H]2SC1 [POD, Cefpodoxime] ?
Result: <=0.25 μg/mL
